Test system: HCT-15 colon
Measurement Protocol: NCI tumour cell line growth inhibition, 48 h
Starred links: 1 amine or outer side, 2 acyl side, 3 side chain; linkers in the order of their positions; H or OH if unused. Positions of bridges follow the written chain, without caps; N, C: chain ends. Non-standard residues stand in square brackets, D forms with d. Residues, ends and D or L forms follow the SMILES beside them. Chains are numbered I, II in the order given. Actinocin(1to9) = Cc1c2oc3c(C)ccc(C(=O)[*:2])c3nc-2c(C(=O)[*:1])c(N)c1=O; NMeV = CN[CH](C(=O)O)C(C)C; Sar = CNCC(=O)O
Hi there, I'd appreciate the recorded TGI for every entry that follows.

The reported TGI of the compound C/C(=N\NC(=S)N1CCCCC1)c1ccccn1 was 12.6 µM

The reported TGI of the compound CCOC(=O)C(/C(=N/S(=O)(=O)c1cc(C)c(Cl)cc1[S-])[n+]1ccc(N(C)C)cc1)=C(/O)c1ccc([N+](=O)[O-])cc1 was > 100 µM

The reported TGI of the compound CC1=CC(=O)CC(C)(C)C1/C=C/C(C)=C/C=C/C(C)=C/C=C/C=C(C)/C=C/C=C(C)/C=C/C1C(C)=CC(=O)CC1(C)C (stereo not drawn) was 85 µM

The reported TGI of the compound O=C(N/C(=C\c1ccc(Cl)cc1)c1nc2ccccc2[nH]1)c1ccccc1 was > 100 µM

The reported TGI of the compound Cc1nc(N)c(N2CCN(C(=O)O)CC2)c(=O)[nH]1 was > 100 µM

The reported TGI of the compound CCC(C)C1NC(=O)C(NC(=O)c2c3nc4c(C(=O)NC5C(=O)NC(C(C)CC)C(=O)N6CCCC6C(=O)N(C)CC(=O)N(C)C(C(C)C)C(=O)OC5C)ccc(C)c4oc-3c(C)c(=O)c2N)C(C)OC(=O)C(C(C)C)N(C)C(=O)CN(C)C(=O)C2CCCN2C1=O (stereo not drawn) (I: TIP[Sar][NMeV] / II: TIP[Sar][NMeV]; ester I:1-I:C, II:1-II:C; linker I:N-II:N via Actinocin(1to9); configuration not given here) was 10.3 µM

The reported TGI of the compound COC[C@@H](N=C1NC(=O)/C(=C/c2ccc3ncccc3c2)S1)c1ccccc1 was > 25 µM

The reported TGI of the compound CC(C)(CN1CCCCC1)C(=O)/C=C/c1ccc(/C=C/C(=O)C(C)(C)CN2CCCCC2)cc1 was 0.703 µM

The reported TGI of the compound Nc1nccc(-c2c(-c3ccc(F)cc3)ncn2C2CCNCC2)n1 was > 25 µM

The reported TGI of the compound O=c1c2cc(I)ccc2nc(SCc2nncs2)n1Cc1ccccc1 was > 100 µM

The reported TGI of the compound c1ccc2sc(SCCSc3nc4ccccc4s3)nc2c1 was > 100 µM

The reported TGI of the compound COc1cc(Nc2nc3cc(N)cc(N)c3nc2-c2ccccc2)cc(OC)c1OC was 45.4 µM

The reported TGI of the compound CCN1C/C(=C\c2cc(OC)c(OC)cc2OC)C(=O)/C(=C/c2cc(OC)c(OC)cc2OC)C1 was 11.3 µM

The reported TGI of the compound COc1ccccc1NC(=S)N/N=C/c1c(C)n(C)n(-c2ccccc2)c1=O was > 100 µM

The reported TGI of the compound COc1cc(/C=C\c2cc(OC)c(OC)c(OC)c2)cc(N/C=C\C(=O)c2ccc(OC(F)(F)F)cc2)c1OC was > 100 µM

The reported TGI of the compound NC1=CN(CCCO)C2=N/C(=C\c3ccccc3)C(=O)N12 was > 100 µM

The reported TGI of the compound C[C@@H](c1ccccc1)n1c(N)c(-c2ccccn2)c2ccc([N+](=O)[O-])cc2c1=O was > 100 µM

The reported TGI of the compound N.N.N.N.N.[Co+3].[I-].[N-]=[N+]=[N-] was > 100 µM

The reported TGI of the compound CCN(CCCN(C)C)Cc1cc(I)cc(C)c1O was 49.4 µM

The reported TGI of the compound CCOC(=O)C1Cc2c(cc3c4c(cccc24)N(C(C)=O)C3)N(C)C1 (stereo not drawn) was > 100 µM

The reported TGI of the compound CC#CC(O)(C(=O)OCCCN(C)C)C1CCCCC1 (stereo not drawn) was > 100 µM

The reported TGI of the compound COc1ccc2c(c1)/C(=C\c1c(-c3cc(OC)ccc3OC)nc3sc(C)cn13)C(=O)N2C was > 100 µM

The reported TGI of the compound COC(=O)/C=C1\C(=O)N(C(C)=O)c2ccc(Br)cc21 was 21.7 µM

The reported TGI of the compound O=C(CC(=O)N1N=C(N2CCCCC2)CC1c1ccccc1)Nc1ccccc1 (stereo not drawn) was > 100 µM

The reported TGI of the compound Cc1cc2nc3c4cc(O)ccc4n(CCN(C)C)c3nc2cc1C was 4.1 µM

The reported TGI of the compound CC(=O)OC1CC[C@@]2(C)C(=CC[C@@H]3[C@@H]2CC[C@]2(C)Nc4nn(S(C)(=O)=O)cc4C[C@@H]32)C1 (stereo partly drawn) was 89.4 µM

The reported TGI of the compound CN1C(=O)CCC1(O)C1C=CC=CC1 (stereo not drawn) was > 100 µM

The reported TGI of the compound COc1c(CC=C(C)C)c(O)c(C(CC(C)C)c2c(O)c3c(c(C(C)=O)c2O)OC(C(C)(C)O)C3)c(O)c1C(C)=O (stereo not drawn) was > 12.5 µM

The reported TGI of the compound S=c1[nH]nc(CNc2ccc(-c3n[nH]c(=S)n3-c3ccc(Cl)cc3)cc2)n1-c1ccc(Cl)cc1 was > 100 µM

The reported TGI of the compound CN(C)c1ccc(C=Nc2ccc(-c3nc4ccccc4[nH]3)cc2)cc1 was > 100 µM

The reported TGI of the compound COc1ccc(N=NC(=O)NC(Cc2ccccc2)C(=O)O)cc1 (stereo not drawn) was > 100 µM

The reported TGI of the compound COc1ccc(C2=C(Cl)c3cc(OC)c(OC)cc3C2OC)cc1OC (stereo not drawn) was > 100 µM

The reported TGI of the compound O=c1[nH]c(=O)n(COCc2ccccc2)c2ccsc12 was > 100 µM

The reported TGI of the compound Cc1cn(C2CC(O)C(COC(=O)c3ccccc3)O2)c(=O)[nH]c1=O (stereo not drawn) was > 100 µM

The reported TGI of the compound O=C1NC(N2CCOCC2)=N/C1=C\c1ccc(Cl)cc1 was > 100 µM

The reported TGI of the compound C[C@@H](NC1CCCC[C@H]1O)c1ccccc1 (stereo partly drawn) was > 100 µM

The reported TGI of the compound CC1=CC(=O)C2=C(C)CCC3C(C)C(=O)OC3C12 (stereo not drawn) was > 100 µM

The reported TGI of the compound O=C1CSCc2sccc21 was > 100 µM

###

Hi there, I'd appreciate the recorded TGI for every entry that follows.
System: RPMI-8226 leukemia
Measurement Protocol: NCI tumour cell line growth inhibition, 48 h

The reported TGI of the molecule COc1ccc(N=Nc2c(C)c(C#N)c(=S)n(C3OC(CO)C(O)C(O)C3O)c2-c2ccccc2)cc1 (centres undefined) was > 100 µM

The reported TGI of the molecule CCc1n[nH]c(=O)n1/N=C/c1ccccc1O was > 100 µM

The reported TGI of the molecule O=C(c1ccccc1)c1c(CC(O)c2ccccn2)n(C(=O)c2ccccc2)c2ccccc12 (centres undefined) was 56 µM

The reported TGI of the molecule CCOc1cc(C2SCC(=O)N2c2ccc(Oc3ccc(Cl)cc3)c(Cl)c2)ccc1O (centres undefined) was 80.1 µM

The reported TGI of the molecule CC(C)(C)OC(=O)NC(CCCCNC(=O)OCc1ccccc1)C(=O)NCCNc1ccc(NCCNC(=O)C(CCCCNC(=O)OCc2ccccc2)NC(=O)OC(C)(C)C)c2c1C(=O)c1ccccc1C2=O (centres undefined) was > 27.4 µM

The reported TGI of the molecule Cc1ccc(S(=O)(=O)OCCn2cnc3nc(NC(=O)c4ccccc4)[nH]c(=O)c32)cc1 was > 100 µM

The reported TGI of the molecule CC(C)OP(=O)(OC(C)C)/C(Cl)=N/Nc1ccc([N+](=O)[O-])cc1 was > 100 µM

The reported TGI of the molecule COc1ccc(C2=C(Cl)c3cc(OC)c(OC)cc3C2OC)cc1OC (centres undefined) was > 100 µM

The reported TGI of the molecule O=c1c2c(=NCCN3CCCC3)cc3c(=O)n(CCCN4CCOCC4)c(=O)c4c(-c5ccc(CN6CCCC6)cc5)cc(c(O)n1CCCN1CCOCC1)c2c4-3 was 0.409 µM

The reported TGI of the molecule Cc1c(Cl)cccc1NC(=O)C(=O)C(C(=O)c1ccccc1-c1ccccc1)C1OC(=O)c2ccccc21 (centres undefined) was 59.1 µM

The reported TGI of the molecule Cc1cc(O)c(=O)cc2c1C[C@H]1CC(C)(C)/C=C/C[C@]3(C)Oc4cc(=O)c(O)cc(C)c4C[C@H]3C[C@H](O)[C@@]1(C)O2 was 2.97 µM

The reported TGI of the molecule CCOC(=O)c1ccc(NC(=O)Nc2nncs2)cc1 was 10.2 µM

The reported TGI of the molecule O=C(CSc1nc2ccc([N+](=O)[O-])cc2s1)c1ccc2ccccc2c1 was > 100 µM

The reported TGI of the molecule O=C1/C(=C\Oc2ccc(F)cc2)N2CCC1CC2 was > 100 µM

The reported TGI of the molecule Cc1cn([C@@H]2C[C@@H]2CO)c(=O)[nH]c1=O was > 100 µM

The reported TGI of the molecule COc1c(CC=C(C)C)c(O)c(C(CC(C)C)c2c(O)c3c(c(C(C)=O)c2O)OC(C(C)(C)O)C3)c(O)c1C(C)=O (centres undefined) was 3.19 µM

The reported TGI of the molecule O=C(/C=C/c1cc(Cl)cc(Cl)c1O)c1cccc(O)c1 was > 100 µM

The reported TGI of the molecule O=c1cc(N=Nc2ccc(Br)cc2)[nH]c(=S)[nH]1 was 57.9 µM

The reported TGI of the molecule Cn1cnc([N+](=O)[O-])c1Sc1nc(N)nc2c1ncn2C1OC(CO)C(O)C1O (centres undefined) was > 95.5 µM

The reported TGI of the molecule COc1ccc(C(=O)C2=NON3OC23C(=O)c2ccc(OC)cc2)cc1 (centres undefined) was > 50.7 µM

The reported TGI of the molecule CCN(CC)c1cccc2c1/C(=N/O)CCCC2 was > 100 µM

The reported TGI of the molecule Cc1cc2c(c(C=Nc3ccccc3O)c1)OC1(C=C2)Oc2ccccc2C(=O)N1C (centres undefined) was 84.3 µM

The reported TGI of the molecule Cn1cc(C(=O)c2ccccc2)c2ccccc2c1=O was > 100 µM

The reported TGI of the molecule CC(C)(C)OC(=O)n1c2ccccc2c2c(=O)nc(N3CCCCC3)sc21 was > 100 µM

The reported TGI of the molecule C=C1C(=O)O[C@H]2C/C(C)=C/CC[C@@]3(C)O[C@](C)(CC[C@@H]3I)[C@@H](I)C[C@@H]12 was 5.12 µM

The reported TGI of the molecule c1cc(NNc2cccc(-c3nn[nH]n3)c2)cc(-c2nn[nH]n2)c1 was > 100 µM

The reported TGI of the molecule CN(C)c1ccc(C=Nc2ccc(-c3nc4ccccc4[nH]3)cc2)cc1 was > 100 µM

The reported TGI of the molecule CC(=O)Nc1c(S(=O)(=O)c2ccccc2)c(C)c(C)n1CCN(C)C was > 100 µM

The reported TGI of the molecule COc1nc2[nH]ccc2c(=O)[nH]1 was > 100 µM

The reported TGI of the molecule COc1ccc2c(c1OC)C[C@@H]1c3c(cc4c(c3-2)OCO4)CCN1C was 42.9 µM

The reported TGI of the molecule COc1ccc(C2=N[C@@H](Cc3ccccc3)C(=O)Nc3ccsc32)cc1 was 18.8 µM

The reported TGI of the molecule Nc1nccc(-c2c(-c3ccc(F)cc3)ncn2C2CCNCC2)n1 was > 25 µM

The reported TGI of the molecule CC(C)C1=CC(=O)C(C)(C2C(O)CC3(C)C4CC=C5C(CCC(OC6OC(CO)C(O)C(O)C6OC6OC(C)C(O)C(O)C6O)C5(C)C)C4(C)C(=O)CC23C)O1 (centres undefined) was > 100 µM

The reported TGI of the molecule COC(=O)C1CCC(=O)N1CN(C(C)=O)c1ccccc1Cl (centres undefined) was > 100 µM

The reported TGI of the molecule O=Nc1ccc(O)c(=O)cc1 was 3.97 µM

The reported TGI of the molecule CC(C)(CN1CCCCC1)C(=O)/C=C/c1ccc(/C=C/C(=O)C(C)(C)CN2CCCCC2)cc1 was 0.663 µM

The reported TGI of the molecule CCC(C)CCOC(=O)c1ccc(N=Cc2ccc(C=Nc3ccc(C(=O)OCCC(C)CC)cc3)cc2)cc1 (centres undefined) was > 100 µM

The reported TGI of the molecule C[C@@H](NC1CCCC[C@H]1O)c1ccccc1 (some centres undefined) was > 100 µM

The reported TGI of the molecule O=C(NC1(c2cc3ccccc3s2)CCCCC1)C1CCC1 was > 100 µM
